target: human CD3 (human, UniProt P07766 23-207; P09693 23-182; P04234 22-171); experiment: cell-based or functional assay
measure_name: % max ref. OKT3 (dTomato activation) (%)

binder | measure_name | observed_result
F332-3E9 (antibody, mouse IgG2a, V domains shown, also called F332-3E9-2; F332-3E9 (12G4)) VH: QVQLQQPGAELGKPGTSVKLSCKASGYTFTSYWIHWLKQRPGQGLEWIGNINPNGGSINCNEKFTTKATLTIDKSSSTAYMQLSTLTSEDFAVYYCTRDTSGQYYFDYWGQGTTLTVSS VL: DIMMSQSPSSLAVSAGEKVTMSCKSSQSLLNSRTRKNYLAWYQQKPGQSPKLLIYWASTRESGVPDRFTGSGSGTDFTLTISSVQAEDLAVYYCTQSYHLRTFGGGTKLEIK | % max ref. OKT3 (dTomato activation) | 84
F332-4D6 (antibody, mouse IgG2a, V domains shown, also called F332-4D6-2; F322-4D6) VH: QVQLQQSGAELGKPGTSVKLSCKASGYTFTSYWIHWVKQRPGQGLEWIGNINPNSGSTNYNEKFKRKATLTADKSSSTAYMQLSTLTSEDFAVYYCTRDTSGQYYFDYWGQGTTLTVSS VL: DIVMSQSPSSLAVSAGEKVTMSCKSSQSLLNSRTRKNYLAWYQQKPGQSPKVLIYWASTRESGVPDRFTGSGSGTDFTLTISSVQAEDLAVYYCKQSYHLRTFGGGTKLEIK | % max ref. OKT3 (dTomato activation) | 87
F332-7C5 (antibody, mouse IgG2a, V domains shown, also called F332-7C5-2; F332-7C5 (5E12, 10A8)) VH: QVQLQQPGAELGKPGTSVKLSCKASGYTFTSYWMHWVKQRPGQGLEWIGNINPSSGITNYNERFKNKATLTVDKSSTTAYMQLSILTSEDSAVYYCSRDISGQYYFNFWGQGTTLTVSS VL: DIVMSQSPSSLAVSAGEKVTMSCKSSQSLLNSRTRKNYLAWYQQKPGQSPKLLIYWASTRESGVPDRFTGTGSGTDFTLTISSVQAEDLAVYYCKQSYNLRTFGGGTKLEIK | % max ref. OKT3 (dTomato activation) | 102
F332-6D7 (antibody, mouse IgG2a, V domains shown, also called F332-6D7-2; F332-6D7 (7G4)) VH: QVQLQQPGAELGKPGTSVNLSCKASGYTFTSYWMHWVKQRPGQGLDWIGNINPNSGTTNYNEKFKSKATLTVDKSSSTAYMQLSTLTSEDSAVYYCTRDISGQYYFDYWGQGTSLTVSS VL: DIVMSQSPSSLAVSAGEKVTMSCKSSQSLLNSRTRKNYLAWYQQKPGQSPKLLIYWASTRESGVPDRFTGSGSGTDFTLTISSVQAEDLAVYYCKQSYSLRTFGGGSKLEIK | % max ref. OKT3 (dTomato activation) | 86
F332-5F2 (antibody, mouse IgG2b, V domains shown, also called F332-5F2-2; F332-5F2 (6G8, 13A3)) VH: QVQLQQPGAELGKPGTSVKLSCKASGYTFTSYWMHWVKQRPGQGLEWIGNINPNGGDSNYNEKFKSKATLTVDKSSSTAYMQLSTLTSEDSAVYYCTRDISGQYYFDFWGQGTSLTVFS VL: DILMSQSPSSLAVSAGEQVTMSCKSSQSLLNSRTRKNYLAWYQQKPGQSPKLLIFWASTRKSGVPDRFTGSGSGTYFTLTISSVQAEDLAVYYCTQSYNLRTFGGGTKLEIK | % max ref. OKT3 (dTomato activation) | 98
